- Tested on: Hep G2
- Protocol text: Cytotoxicity assay (MTT), Hep G2 cell line
- Format: cell-based
- Test conditions: 50 μM, 24 h
Each entry below carries its recorded Percentage of inhibition of cell growth.
Only the number, expressed in %, is required.

Example results:
CC[C@H]1OC(=O)[C@H](C)[C@@H](O[C@H]2C[C@@](C)(OC)[C@@H](OC(=O)CCN(CC)CC)[C@H](C)O2)[C@H](C)[C@@H](O[C@@H]2O[C@H](C)C[C@H](N(C)C)[C@H]2O)[C@](C)(OC)C[C@@H](C)C(=O)[C@H](C)[C@H]2NC(=O)O[C@@]21C    15
CC[C@H]1OC(=O)[C@H](C)[C@@H](O[C@H]2C[C@@](C)(OC)[C@@H](OC(=O)CCN3CCN(CCN(CC)CC)CC3)[C@H](C)O2)[C@H](C)[C@@H](O[C@@H]2O[C@H](C)C[C@H](N(C)C)[C@H]2O)[C@](C)(OC)C[C@@H](C)C(=O)N[C@H](C)[C@@H](O)[C@]1(C)O    0
CC[C@H]1OC(=O)[C@H](C)C(O[C@H]2C[C@@](C)(OC)[C@@H](OC(=O)CCN(CC)CC)[C@H](C)O2)[C@H](C)[C@@H](O[C@@H]2O[C@H](C)C[C@H](N(C)C)[C@H]2O)[C@](C)(OC)C[C@@H](C)C(=O)[C@H](C)[C@H](O)[C@]1(C)O (some centres unmarked)    26
CC[C@H]1OC(=O)[C@H](C)[C@@H](O[C@H]2C[C@@](C)(OC)[C@@H](OC(=O)CCN(CC)CC)[C@H](C)O2)[C@H](C)[C@@H](O[C@@H]2O[C@H](C)C[C@H](NC)[C@H]2O)[C@](C)(OC)C[C@@H](C)C(=O)N[C@H](C)[C@@H](O)[C@]1(C)O    2

Give the reported value of Percentage of inhibition of cell growth for this record: `CC[C@H]1OC(=O)[C@H](C)[C@@H](O[C@H]2C[C@@](C)(OC)[C@@H](OC(=O)CCN(C)CCO)[C@H](C)O2)[C@H](C)[C@@H](O[C@@H]2O[C@H](C)C[C@H](N(C)C)[C@H]2O)[C@](C)(OC)C[C@@H](C)C(=O)N[C@H](C)[C@@H](O)[C@]1(C)O`
0

Give the reported value of Percentage of inhibition of cell growth for this record: `CC[C@H]1OC(=O)[C@H](C)[C@@H](O[C@H]2C[C@@](C)(OC)[C@@H](OC(=O)CCN3CCN(CCCN4CCCCC4)CC3)[C@H](C)O2)[C@H](C)[C@@H](O[C@@H]2O[C@H](C)C[C@H](N(C)C)[C@H]2O)[C@](C)(OC)C[C@@H](C)C(=O)N[C@H](C)[C@@H](O)[C@]1(C)O`
1

Give the reported value of Percentage of inhibition of cell growth for this record: `CC[C@H]1OC(=O)[C@H](C)[C@@H](O[C@H]2C[C@@](C)(OC)[C@@H](OC(=O)CCN(C)CCN(CC)CC)[C@H](C)O2)[C@H](C)[C@@H](O[C@@H]2O[C@H](C)C[C@H](N(C)C)[C@H]2O)[C@](C)(OC)C[C@@H](C)C(=O)N[C@H](C)[C@@H](O)[C@]1(C)O`
4

Give the reported value of Percentage of inhibition of cell growth for this record: CC[C@H]1OC(=O)[C@H](C)[C@@H](O[C@H]2C[C@@](C)(OC)[C@@H](OC(=O)CCN3CCN(CC4CCCN(C)C4)CC3)[C@H](C)O2)[C@H](C)[C@@H](O[C@@H]2O[C@H](C)C[C@H](N(C)C)[C@H]2O)[C@](C)(OC)C[C@@H](C)C(=O)N[C@H](C)[C@@H](O)[C@]1(C)O (some centres unmarked)
4

Give the reported value of Percentage of inhibition of cell growth for this record: `CC[C@H]1OC(=O)[C@H](C)[C@@H](O[C@H]2C[C@@](C)(OC)[C@@H](OCCCN(CC)CC)[C@H](C)O2)[C@H](C)[C@@H](O[C@@H]2O[C@H](C)C[C@H](N(C)C)[C@H]2O)[C@](C)(OC)C[C@@H](C)C(=O)N[C@H](C)[C@@H](O)[C@]1(C)O`
0

Give the reported value of Percentage of inhibition of cell growth for this record: `CC[C@H]1OC(=O)[C@H](C)[C@@H](O[C@H]2C[C@@](C)(OC)[C@@H](OC(=O)CCN3CCN(CCN(C)C)CC3)[C@H](C)O2)[C@H](C)[C@@H](O[C@@H]2O[C@H](C)C[C@H](N(C)C)[C@H]2O)[C@](C)(OC)C[C@@H](C)C(=O)N[C@H](C)[C@@H](O)[C@]1(C)O`
2

Give the reported value of Percentage of inhibition of cell growth for this record: `CC[C@H]1OC(=O)[C@H](C)[C@@H](O[C@H]2C[C@@](C)(OC)[C@@H](OC(=O)CCN(CC)CC)[C@H](C)O2)[C@H](C)[C@@H](O[C@@H]2O[C@H](C)C[C@H](N(C)C)[C@H]2O)[C@](C)(O)C[C@@H](C)NC(=O)[C@H](C)[C@@H](O)[C@]1(C)O`
1
